Assay: Cycloheximide Counterscreen for Small Molecule Inhibitors of Shiga Toxin; also: read at 38.3 µM for the half of the compounds with a filed dose; 0% is about no effect
Conditions: cell reporter, cycloheximide protein synthesis inhibition counterscreen; active compounds read high
In all, about 300,000 compounds went through this assay and about 37,000 (12%) were called active. Shown is part of a subset that was picked to be rich in actives.
Attribute: max response

Reference set (4 entries):
Compound | max response
Cc1cc([N+](=O)[O-])ccc1NC(=O)C1CCCO1 (stereo unspecified) | 3.91% (inactive)
CN1/C(=C\C(=O)c2oc3ccccc3c2N)C(C)(C)c2ccccc21 | 5.01% (inactive)
CC(=O)N(CCCN(C)C)c1nc2ccc(C)cc2s1 | 7.76% (inactive)
Cc1ccc2nc(N(CCN(C)C)C(=O)C3=COCCO3)sc2c1 | 30.5% (active)

Per the record, Cc1ccc(C)c(C(C)NC(=O)C2CCCO2)c1 (stereo unspecified) has max response of -2.44% (inactive)

Please fill in: max response reported for Cc1cc(C)c2nc(NC(=O)C3CCCO3)sc2c1 (stereo unspecified) = 44.3% (active)

// recorded max response for `C[C@H](NC(=O)[C@@H]1Cc2ccccc2CN1C(=O)OC(C)(C)C)C(=O)NC1CCCC1` : 0.878% (inactive)

`CCOc1ccc(N(C)S(=O)(=O)c2cnc[nH]2)cc1` has a reported max response of -3.61% (inactive)

Lab note: `CN(C)CCN(C(=O)C1=COCCO1)c1nc2ccc(Cl)cc2s1` gave max response of 36.4% (active)

max response recorded for this compound, `O=C(CSc1nc(Nc2ccccc2)nc(N2CCOCC2)n1)Nc1cc(Cl)ccc1O` , is 7.58% (inactive)

Kindly note the recorded max response for `Cc1ccccc1Cn1c2ccccc2c2cnn(CC(=O)NCc3ccco3)c(=O)c21` , which is 1.52% (inactive)
